test system: Porcine Atria myofibrils; assay: Myofibril ATPase assay (PK/LDH NADH-coupled), atria myofibrils; assay type: biochemical; details: Table 8
# key: entry, value: Porcine Atria IC25
Report the figure in nM without appending any unit label.

For orientation, consider the following solved cases.
Query :: Data request, read-out Porcine Atria IC25, for C[C@@H](NC(=O)CN1Cc2c(F)cc(Cl)cc2NC1=O)c1ccc(C#N)cc1F
Result :: 280

Query :: GET /values?readout=Porcine Atria IC25&item= Cc1cc([C@@H](C)NC(=O)CN2Cc3c(ccc(F)c3F)NC2=O)ncc1C#N
Result :: 160

Continuing:
Query :: Entry N#Cc1cnc2c(c1)COC[C@@H]2NC(=O)CN1Cc2c(ccc(F)c2F)NC1=O has what Porcine Atria IC25?
Result :: 100000

Query :: May I ask what Porcine Atria IC25 has been recorded for Cc1cccc2c1C1(CC1)N(CC(=O)N[C@H]1COc3cc(C#N)cnc31)C(=O)N2 ?
Result :: 1420

###

System: Porcine Atria myofibrils
Test: Myofibril ATPase assay (PK/LDH NADH-coupled), atria myofibrils
Assay type: biochemical
Details: Table 7
Procedure: Myofibril ATPase Assay Procedure: BSA, ATP, NADH, PEP, and DTT solutions were thawed at room temperature, then transferred to ice. […] 25 μL of Buffer A was dispensed into the wells, followed by 25 μL of Buffer B. The wells were measured for absorbance at 340 nm, using a kinetic protocol in which the wells are read every 1.5-2 min for 75 min. […] In addition to the fit parameters, the EC25% is calculated, relative to the 100% normalized value. […]
quantity-measured: Porcine Atria IC25 (µM)
Give the quantity in µM, number only.

Please review the entries below; each comes with its answer.
Query :: What value of measured Porcine Atria IC25 is listed for N#Cc1nccc2c1CN(CC(=O)N[C@@H](CO)c1ccc(F)cc1F)C(=O)N2 ?
Result :: 1.12

Query :: Look up Porcine Atria IC25: C[C@H](NC(=O)CN1Cc2c(ccnc2OCC(F)F)NC1=O)c1ccc(F)cc1F
Result :: 0.36

Query :: Record request: Porcine Atria IC25 value, item C[C@@H](NC(=O)CN1C(=O)Nc2cccnc2C12CC2)c1ncc(F)cc1F
Result :: 0.67

Query :: Please report the recorded Porcine Atria IC25 for C[C@H](NC(=O)[C@@H](C)N1Cc2c(ccnc2Br)NC1=O)c1ccc(F)cc1F .
Result :: 3.69

Query :: Could you tell me which Porcine Atria IC25 is on file for C[C@H](NC(=O)CN1Cc2cnccc2NC1=O)c1ccc(Cl)cc1 ?
Result :: 36.11

More entries:
Query :: Need Porcine Atria IC25 of C[C@H](NC(=O)CN1Cc2cc(F)cnc2NC1=O)c1ccc(F)cc1F , thanks.
Result :: 36.26

Query :: Dear colleague, I am looking for the recorded Porcine Atria IC25 of the following compound: C[C@H](NC(=O)CN1Cc2c(C#N)cncc2NC1=O)c1ncc(F)cc1F
Result :: 9.59

Query :: Reported Porcine Atria IC25 for CCOc1nccc2c1CN(CC(=O)N[C@@H](C)c1ccc(F)cc1F)C(=O)N2 : what is it?
Result :: 0.51

###

# key: entry, value: Potency, Full-length myosin + exchanged human ventricle RLC
Molecular target: myosin+human ventricle RLC (Sus scrofa)
Construct: Full-length myosin was resuspended to 1 mg/mL
Experiment: NADH-coupled actin-activated ATPase assay, myosin + human ventricle RLC
Type: biochemical
Conditions: 2 μM myosin, rabbit skeletal actin, 25° C., 1% DMSO
Procedure: Full-length myosin was resuspended to 1 mg/mL in a buffer containing 500 mM KCl, 10 mM KPi, 15 mM CDTA, pH 8.5. Triton-X was then added to a final concentration of […], and the suspension was agitated for 15 minutes at room temperature to selectively remove the regulatory light chain (RLC). RLC-removed myosin was then precipitated and collected and resuspended in a buffer containing 400 mM KCl, 50 mM Mops, pH 7, 2 mM MgCl2, and 1 mM DTT. […]
Your answer should be a plain number; it is taken to be in nM.

Below, 4 compounds whose answers are already recorded.
Query :: Given C[C@H](NC(=O)CN1Cc2cc(F)ccc2NC1=O)c1ncc(C#N)cc1F [Compound B199] , state its recorded Potency, Full-length myosin + exchanged human ventricle RLC.
Result :: 629

Query :: // query Potency, Full-length myosin + exchanged human ventricle RLC value for entry O=C(CN1Cc2cc(F)ccc2NC1=O)N[C@@H]1COc2cc(F)cc(F)c21 [Compound B145]
Result :: 670

Query :: I would be grateful if you could share the reported Potency, Full-length myosin + exchanged human ventricle RLC for C[C@H](NC(=O)C1(N2Cc3c(ccc(F)c3F)NC2=O)CC1)c1ncc(C#N)cc1F [Compound B269] .
Result :: 490

Query :: I have this compound here, O=C(CN1C(=O)Nc2cccnc2C12CC2)N[C@@H]1COc2cc(F)cc(F)c21 [Compound N33] , and I need its recorded Potency, Full-length myosin + exchanged human ventricle RLC.
Result :: 400

The record that follows has no Potency, Full-length myosin + exchanged human ventricle RLC shown yet.
Query :: Need Potency, Full-length myosin + exchanged human ventricle RLC, item CC(NC(=O)CN1Cc2cc(F)ccc2NC1=O)c1ccc(C#N)cc1F (single isomer, unassigned) [Compound B206]
Result :: 680

###

target: Porcine Ventricle myofibrils (left ventricle of Yucatan minipigs) (Sus scrofa, UniProt P79293); construct: Myofibrils from porcine cardiac muscle was isolated from the left ventricle of Yucatan minipigs; tissue Exemplar Genetics; host or cells: left ventricle of Yucatan minipigs; test: Myofibril ATPase assay (PK/LDH NADH-coupled), ventricle myofibrils; type: biochemical; details: Table 8
quantity-measured: Porcine Ventricle IC25 (µM)
Please reply with the bare figure in µM and do not write the unit itself.

Take a look at these entries with their results.
Query :: Which Porcine Ventricle IC25 value belongs to O=C(CN1Cc2cc(F)ccc2NC1=O)N[C@@H]1COc2cc(F)cc(F)c21 ?
Result :: 0.0512

Query :: Param item = Cc1ncc(C#N)nc1[C@H](C)NC(=O)CN1Cc2c(ccc(F)c2F)NC1=O ; retrieve measured Porcine Ventricle IC25.
Result :: 0.83

---
Query :: Given the molecule C[C@@H](NC(=O)CN1Cc2c(ccc(F)c2F)NC1=O)c1ncc(C(N)=O)cc1O , what is its reported Porcine Ventricle IC25?
Result :: 60.47

Query :: Which Porcine Ventricle IC25 value is on record for C[C@@H](NC(=O)CN1Cc2c(ccc(F)c2F)NC1=O)c1nc(-c2ccc(F)cn2)no1 ?
Result :: 28.59

###

target: myosin+native RLC (Sus scrofa, UniProt P79293); construct: Full-length myosin was resuspended to 1 mg/mL; assay: NADH-coupled actin-activated ATPase assay, myosin + native RLC; type: biochemical; details: 1 μM myosin, rabbit skeletal actin, 25° C., 1% DMSO
Sequence (P79293 whole entry): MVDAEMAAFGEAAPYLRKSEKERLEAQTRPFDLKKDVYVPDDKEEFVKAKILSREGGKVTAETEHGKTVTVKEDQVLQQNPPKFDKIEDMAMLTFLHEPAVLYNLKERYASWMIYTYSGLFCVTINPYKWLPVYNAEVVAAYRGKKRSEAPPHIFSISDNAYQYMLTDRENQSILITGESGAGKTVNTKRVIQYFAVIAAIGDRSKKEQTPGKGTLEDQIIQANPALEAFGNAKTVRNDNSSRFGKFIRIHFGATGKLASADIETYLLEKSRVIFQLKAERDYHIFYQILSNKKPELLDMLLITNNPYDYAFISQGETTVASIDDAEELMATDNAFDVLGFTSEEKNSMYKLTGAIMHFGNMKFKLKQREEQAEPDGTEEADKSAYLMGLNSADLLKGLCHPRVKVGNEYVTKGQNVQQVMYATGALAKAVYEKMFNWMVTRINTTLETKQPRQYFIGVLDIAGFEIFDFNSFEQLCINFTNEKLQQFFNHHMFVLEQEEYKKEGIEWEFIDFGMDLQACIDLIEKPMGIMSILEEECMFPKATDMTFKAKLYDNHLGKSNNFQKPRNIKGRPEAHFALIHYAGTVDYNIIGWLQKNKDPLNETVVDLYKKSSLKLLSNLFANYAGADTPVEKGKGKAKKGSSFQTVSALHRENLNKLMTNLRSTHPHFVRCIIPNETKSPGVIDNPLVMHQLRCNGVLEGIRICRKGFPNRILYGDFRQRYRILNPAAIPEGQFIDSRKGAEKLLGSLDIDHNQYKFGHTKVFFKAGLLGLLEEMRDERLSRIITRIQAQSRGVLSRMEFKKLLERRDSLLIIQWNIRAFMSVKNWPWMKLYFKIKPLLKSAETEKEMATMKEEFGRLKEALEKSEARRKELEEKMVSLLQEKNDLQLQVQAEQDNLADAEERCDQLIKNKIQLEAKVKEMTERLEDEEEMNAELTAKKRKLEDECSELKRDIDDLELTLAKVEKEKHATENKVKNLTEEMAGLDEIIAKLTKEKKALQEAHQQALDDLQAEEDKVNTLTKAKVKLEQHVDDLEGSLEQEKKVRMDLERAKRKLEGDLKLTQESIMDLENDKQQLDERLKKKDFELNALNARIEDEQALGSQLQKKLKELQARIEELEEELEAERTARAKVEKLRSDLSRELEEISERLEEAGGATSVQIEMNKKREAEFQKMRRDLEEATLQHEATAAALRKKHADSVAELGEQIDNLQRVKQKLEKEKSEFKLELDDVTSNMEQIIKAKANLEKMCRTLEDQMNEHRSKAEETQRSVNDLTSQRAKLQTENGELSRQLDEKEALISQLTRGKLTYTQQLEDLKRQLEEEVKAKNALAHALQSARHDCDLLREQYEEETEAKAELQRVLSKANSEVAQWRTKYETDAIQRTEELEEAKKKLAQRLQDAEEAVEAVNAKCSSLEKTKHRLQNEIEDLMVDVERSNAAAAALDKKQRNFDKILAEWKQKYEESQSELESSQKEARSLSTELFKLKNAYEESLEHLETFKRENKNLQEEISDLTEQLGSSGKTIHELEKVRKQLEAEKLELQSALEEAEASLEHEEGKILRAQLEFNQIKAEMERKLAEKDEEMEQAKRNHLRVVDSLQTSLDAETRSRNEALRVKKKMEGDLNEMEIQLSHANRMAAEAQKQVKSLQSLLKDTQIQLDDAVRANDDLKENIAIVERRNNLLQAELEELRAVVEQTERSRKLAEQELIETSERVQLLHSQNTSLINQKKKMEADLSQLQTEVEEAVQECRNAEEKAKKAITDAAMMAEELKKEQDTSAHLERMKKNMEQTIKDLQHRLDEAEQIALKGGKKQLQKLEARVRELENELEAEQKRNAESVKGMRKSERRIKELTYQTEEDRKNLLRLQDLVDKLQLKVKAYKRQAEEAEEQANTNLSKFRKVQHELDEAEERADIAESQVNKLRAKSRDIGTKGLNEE
Tick y if Potency, Full-length myosin + native porcine ventricle RLC is 1000 nM or greater. Tick n if Potency, Full-length myosin + native porcine ventricle RLC is less than 1000 nM.

Query :: # bool: Potency, Full-length myosin + native porcine ventricle RLC of C[C@@H](NC(=O)CN1Cc2c(ccc(F)c2F)NC1=O)c1ncc(C#N)cc1F >= 1000 nM
Result :: y

Query :: Has O=C(CN1Cc2cc(F)ccc2NC1=O)N[C@@H]1COc2cc(F)cc(F)c21 a recorded Potency, Full-length myosin + native porcine ventricle RLC greater than or equal to 1000 nM?
Result :: y

Query :: Does O=C(CN1Cc2c(ccc(F)c2F)NC1=O)N[C@@H]1COc2cc(F)cc(F)c21 have a reported Potency, Full-length myosin + native porcine ventricle RLC of at least 1000 nM?
Result :: n

Query :: # bool: Potency, Full-length myosin + native porcine ventricle RLC of C[C@H](NC(=O)CN1Cc2cc(F)ccc2NC1=O)c1ncc(C#N)cc1F >= 1000 nM
Result :: n

Query :: Is Potency, Full-length myosin + native porcine ventricle RLC for C[C@H](NC(=O)CN1Cc2cc(F)ccc2NC1=O)c1ccc(C#N)cn1 at or above 1000 nM?
Result :: y

Others:
Query :: # check: Potency, Full-length myosin + native porcine ventricle RLC of N#Cc1cnc2c(c1)OCC2NC(=O)CN1Cc2c(ccc(F)c2F)NC1=O (single isomer, unassigned) is greater than or equal to 1000 nM
Result :: n

Query :: Could you please find out whether C[C@H](NC(=O)CN1Cc2c(ccc(F)c2F)NC1=O)c1ncc(F)cc1F has Potency, Full-length myosin + native porcine ventricle RLC that meets 1000 nM or exceeds it?
Result :: n

###

tested on: Porcine Atria myofibrils; experiment: Myofibril ATPase assay (PK/LDH NADH-coupled), atria myofibrils; format: biochemical; conditions: Table 8
Classification field: Condition met = Porcine Atria IC25 at or over 4 µM; Condition not met = Porcine Atria IC25 under 4 µM.

Known results for compounds:
Query :: Given C[C@@H](NC(=O)CN1Cc2c(ccc(F)c2F)NC1=O)c1cc2cccnc2cn1 , state whether its Porcine Atria IC25 is at least 4 µM.
Result :: Condition not met

Query :: Is it the case that C[C@@H](C(=O)N[C@H](CO)c1ccc(F)cc1F)N1Cc2c(Cl)cccc2NC1=O has Porcine Atria IC25 reaching or exceeding 4 µM?
Result :: Condition met

Query :: Exam item: decide whether the reported Porcine Atria IC25 for Cc1cccc2c1C1(CC1)N(CC(=O)N[C@@H](C)c1ncc(C#N)nc1C)C(=O)N2 is at least 4 µM.
Result :: Condition met

Others:
Query :: Tell me whether Porcine Atria IC25 is at least 4 µM here: C[C@@H](C(=O)N[C@@H](CO)c1ncc(F)cc1F)N1Cc2c(Cl)cccc2NC1=O
Result :: Condition not met

Query :: In plain terms: is recorded Porcine Atria IC25 at least 4 µM for Cc1nc(C#N)ncc1[C@H](C)NC(=O)CN1C(=O)Nc2ccc(F)cc2C12CC2 ?
Result :: Condition met

Query :: Confirm if Porcine Atria IC25 reported for the compound C[C@H](NC(=O)CN1Cc2c(ccc(F)c2F)NC1=O)c1cc2cccnc2cn1 is 4 µM or above.
Result :: Condition met

Query :: Please tell me: is the compound C[C@H](NC(=O)CN1Cc2c(ccc(F)c2C#N)NC1=O)c1ccc(C#N)cn1 at or over 4 µM in terms of Porcine Atria IC25?
Result :: Condition not met

Query :: Exam item: decide whether the reported Porcine Atria IC25 for Cc1nc(C(C)NC(=O)CN2Cc3c(ccc(F)c3F)NC2=O)no1 (centres unmarked) is at least 4 µM.
Result :: Condition not met
